- System: KO-52 cells
- protocol_description: Proliferation assay, spheroid-like growth, KO-52 (MLL wildtype control cell line)
- Type: cell-based, human
- experimental_parameters: Homo sapiens, 192 h, KO-52 control cells, 8 days, confluence as measure of spheroid size; read-out: spheroid assay_OneTime KO-52 IC50
readout_kind: IC50

Answered examples (2):
* CC(C)[C@@H]([C@H]1C[C@@H](N2CCC(O)C(F)C2)C1)N1CC2(CCN(c3ncnnc3Oc3ccc(F)cc3-c3cncnc3C3CC3)C2)C1 (single isomer, unassigned) | > 15 µM
* CO[C@H]1CCN([C@H]2C[C@H]([C@H](C(C)C)N3CC4(CCN(c5ncnnc5Oc5ccc(F)cc5-c5cnncc5C5CC5)C4)C3)C2)C1 (single isomer, unassigned) | > 15 µM

Q. Reported IC50, compound CC(=O)N1CCN([C@H]2C[C@@H]([C@@H](C(C)C)N3CC4(CCN(c5ncnnc5Oc5ccc(F)cc5-c5cnncc5C5CC5)C4)C3)C2)CC1 (single isomer, unassigned) : ____
A. > 15 µM

* * *

- System: KO-52 cells
- protocol_description: Proliferation assay, spheroid-like growth, KO-52 (MLL wildtype control cell line)
- Assay type: cell-based, human
- experimental_parameters: Homo sapiens, 192 h, KO-52 control cells, 8 days, confluence as measure of spheroid size; read-out: spheroid assay_OneTime KO-52 IC50
pIC50: −log10 of the molar value.
readout_kind: pIC50

Answered examples (2):
• CC(C)C([C@H]1C[C@@H](Nc2ccn(C)n2)C1)N1CC2(CCN(c3ncnnc3Oc3ccc(F)cc3-c3cncnc3C3CC3)C2)C1 (stereo partly drawn) = < 4.82
• CC(C)[C@@H]([C@H]1C[C@H](N2CC[C@@H](C(=O)N(C)C)C2)C1)N1CC2(CCN(c3ncnnc3Oc3ccc(F)cc3-c3cnncc3C3CC3)C2)C1 (single isomer, unassigned) = < 4.82

Proceeding to the next molecule to report its pIC50.
Q. Tell me reported pIC50 for CC(=O)N[C@H]1C[C@@H](C(C(C)C)N2CC3(CCN(c4ncnnc4Oc4ccc(F)cc4-c4cccc(=O)n4C4CC4)C3)C2)C1 (stereo partly drawn) , tested with KO-52 cells.
A. < 4.82

* * *

Examples of compounds with documented IC50 follow.
- Test system: MOLM14 cells
- protocol_description: Proliferation assay, spheroid-like growth, MOLM14 (MLL-AF9 rearranged)
- Type: cell-based, human
- experimental_parameters: Homo sapiens, MOLM-14, 192 h, 8 days, confluence as measure of spheroid size, read-out: spheroid assay_OneTime MOLM14 IC50

Answered examples (2):
* CNC(=O)Nc1cc(N[C@H]2C[C@@H](C(C(C)C)N3CC4(CCN(c5ncnnc5Oc5ccc(F)cc5-c5cncnc5C5CC5)C4)C3)C2)ccn1 (single isomer, unassigned) [Compound 421] | < 0.0018 µM
* CC(=O)N1CCN([C@H]2C[C@@H]([C@@H](C(C)C)N3CC4(CCN(c5ncnnc5Oc5ccc(F)cc5-c5cnncc5C5CC5)C4)C3)C2)CC1 (single isomer, unassigned) [Compound 80] | > 0.94 µM

Proceeding to the next compound to report its IC50.
Q. Reported IC50, compound CC(C)[C@@H]([C@H]1C[C@]2(COC(=O)N2)C1)N1CC2(CCN(c3ncnnc3Oc3ccc(F)cc3-c3nnccc3C3CC3)C2)C1 (single isomer, unassigned) [Compound 324] : ____
A. > 0.94 µM

* * *

- Test system: KO-52 cells
- protocol_description: Proliferation assay, spheroid-like growth, KO-52 (MLL wildtype control cell line)
- Format: cell-based, human
- experimental_parameters: Homo sapiens, 192 h, KO-52 control cells, 8 days, confluence as measure of spheroid size; read-out: spheroid assay_OneTime KO-52 IC50
readout_kind: IC50

• CC(=O)N1CCN([C@H]2C[C@@H]([C@H](C(C)C)N3CC4(CCN(c5ncnnc5Oc5ccc(F)cc5-c5ncc(C#N)cc5C5CC5)C4)C3)C2)CC1 (single isomer, unassigned) = > 15 µM

Q. Reported IC50, molecule CC(C)[C@H]([C@H]1C[C@]2(COC(=O)N2)C1)N1CC2(CCN(c3ncnnc3Oc3ccc(F)cc3-c3cncnc3C3CC3)C2)C1 (single isomer, unassigned) : ____
A. > 15 µM

Q. Reported IC50, molecule CC(C)[C@H]([C@H]1C[C@H](N2CCC(C)(C(=O)N(C)C)CC2)C1)N1CC2(CCN(c3ncnnc3Oc3ccc(F)cc3-c3cncnc3C3CC3)C2)C1 (single isomer, unassigned) : ____
A. > 15 µM

Q. Reported IC50, molecule CC(C)[C@@H]([C@H]1C[C@H](NC2CC2)C1)N1CC2(CCN(c3ncnnc3Oc3ccc(F)cc3-c3nnccc3C3CC3)C2)C1 (single isomer, unassigned) : ____
A. > 15 µM

Q. Reported IC50, molecule CC(=O)N[C@H]1C[C@@H]([C@H](C(C)C)N2CC3(CCN(c4ncnnc4Oc4ccc(F)cc4-c4ncncc4C4CC4)C3)C2)C1 (single isomer, unassigned) : ____
A. > 15 µM

* * *

- target_or_test_system: menin/MLL (terbium chelate-labeled menin, FITC-MBM1 peptide) (Homo sapiens, UniProt O00255, T541A)
- Construct: Menin (a.a 1-610-6xhis tag)
- Sequence (O00255 with tags, fused parts or gaps T541A): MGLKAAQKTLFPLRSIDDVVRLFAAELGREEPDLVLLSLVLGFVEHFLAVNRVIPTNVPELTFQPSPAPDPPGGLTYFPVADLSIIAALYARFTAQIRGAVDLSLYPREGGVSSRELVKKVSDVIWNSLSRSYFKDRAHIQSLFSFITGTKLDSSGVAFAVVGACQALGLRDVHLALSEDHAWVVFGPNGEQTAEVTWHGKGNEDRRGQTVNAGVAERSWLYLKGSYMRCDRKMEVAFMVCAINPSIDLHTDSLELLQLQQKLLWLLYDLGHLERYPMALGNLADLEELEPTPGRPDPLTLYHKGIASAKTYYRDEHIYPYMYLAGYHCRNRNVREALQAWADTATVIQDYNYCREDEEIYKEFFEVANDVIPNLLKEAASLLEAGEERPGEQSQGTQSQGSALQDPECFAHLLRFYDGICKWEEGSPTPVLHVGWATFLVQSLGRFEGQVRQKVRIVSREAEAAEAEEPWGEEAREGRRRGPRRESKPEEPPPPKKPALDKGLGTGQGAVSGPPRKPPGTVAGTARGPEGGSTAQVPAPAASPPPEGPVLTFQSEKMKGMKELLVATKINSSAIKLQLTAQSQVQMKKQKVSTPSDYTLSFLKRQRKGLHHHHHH
- protocol_description: Menin/MLL homogenous time-resolved fluorescence (HTRF) assay
- experimental_parameters: 30 min incubation
I'd appreciate it if you marked entries yes (1) when IC50 is lower than 0.1 nM and no (0) when it is not.

Illustrative cases are given below, each with its answer.
- CNC(=O)c1cc(N[C@H]2C[C@@H]([C@@H](C(C)C)N3CC4(CCN(c5ncnnc5Oc5ccc(F)cc5-c5cncnc5C5CC5)C4)C3)C2)ccn1 (single isomer, unassigned): no (0)
- CC(C)[C@H](C1CC2(CCN2CC2COC2)C1)N1CC2(CCN(c3ncnnc3Oc3ccc(F)cc3-c3cncnc3C3CC3)C2)C1 (single isomer, unassigned): no (0)
- CC(C)[C@H]([C@H]1C[C@]2(CCC(=O)N2)C1)N1CC2(CCN(c3ncnnc3Oc3ccc(F)cc3-c3cncnc3C3CC3)C2)C1 (single isomer, unassigned): no (0)
- CC(C)C([C@H]1C[C@@H](Nc2ccnc(N)n2)C1)N1CC2(CCN(c3ncnnc3Oc3ccc(F)cc3-c3cncnc3C3CC3)C2)C1 (some centres unmarked): yes (1)
- C[C@@H]([C@H]1C[C@@H](NC(=O)C2CC2)C1)N1CC2(CCN(c3ncnnc3Oc3ccc(F)cc3-c3cncnc3C3CC3)C2)C1 (single isomer, unassigned): no (0)

Q. Below 0.1 nM on IC50? Entry COC1CCN([C@H]2C[C@@H](C(C(C)C)N3CC4(CCN(c5ncnnc5Oc5ccc(F)cc5-c5cncnc5C5CC5)C4)C3)C2)CC1 (some centres unmarked) [Compound 124]
A. no (0)

Q. Below 0.1 nM on IC50? Entry CC(C)C(C1CC(C)(O)C1)N1CC2(CCN(c3ncnnc3Oc3ccc(F)cc3-c3cncnc3C3CC3)C2)C1 (single isomer, unassigned)
A. no (0)

Q. Below 0.1 nM on IC50? Entry CC(C)[C@H]([C@H]1C[C@@H](N2CC(C(=O)N(C)C)C2)C1)N1CC2(CCN(c3ncnnc3Oc3ccc(F)cc3-c3cncnc3C3CC3)C2)C1 (single isomer, unassigned)
A. no (0)

Q. Below 0.1 nM on IC50? Entry CC(C)C([C@H]1C[C@@H](Nc2cccc(CN3CCOCC3)n2)C1)N1CC2(CCN(c3ncnnc3Oc3ccc(F)cc3-c3cncnc3C3CC3)C2)C1 (single isomer, unassigned)
A. yes (1)

Q. Below 0.1 nM on IC50? Entry CC(C)C([C@H]1C[C@@H](N2CCC(F)(F)CC2)C1)N1CC2(CCN(c3ncnnc3Oc3ccc(F)cc3-c3cncnc3C3CC3)C2)C1 (some centres unmarked)
A. no (0)

* * *

Examples of compounds with documented IC50 follow.
- target_or_test_system: menin/MLL (terbium chelate-labeled menin, FITC-MBM1 peptide) (Homo sapiens, UniProt O00255, T541A)
- Construct: Menin (a.a 1-610-6xhis tag)
- protocol_description: Menin/MLL homogenous time-resolved fluorescence (HTRF) assay
- experimental_parameters: 30 min incubation
Report as a plain number; the unit nM is understood.

Answered examples (4):
• CC(=O)Nc1cncc(N[C@H]2C[C@@H](C(C(C)C)N3CC4(CCN(c5ncnnc5Oc5ccc(F)cc5-c5cncnc5C5CC5)C4)C3)C2)c1 (single isomer, unassigned) = 0.11
• CC(C)[C@@H]([C@H]1C[C@@H](N2CCC(C(=O)N(C)C)CC2)C1)N1CC2(CCN(c3ncnnc3Oc3ccc(F)cc3-c3ncncc3C3CC3)C2)C1 (single isomer, unassigned) = 0.1
• COC1CN([C@H]2C[C@@H]([C@@H](C(C)C)N3CC4(CCN(c5ncnnc5Oc5ccc(F)cc5-c5cncnc5C5CC5)C4)C3)C2)CC1OC (single isomer, unassigned) = 0.2
• CC(C)[C@@H]([C@H]1C[C@H](N2C[C@H]3COC[C@H]3C2)C1)N1CC2(CCN(c3ncnnc3Oc3ccc(F)cc3-c3cnncc3C3CC3)C2)C1 (single isomer, unassigned) = 0.1

Q. Reported IC50, compound CC(C)[C@H]([C@H]1C[C@@H](NC(=O)CC#N)C1)N1CC2(CCN(c3ncnnc3Oc3ccc(F)cc3-c3cncnc3C3CC3)C2)C1 (single isomer, unassigned) : ____
A. 0.1
